The reported measurements were obtained from ChEMBL document CHEMBL1158492.

Reported pIC50 values follow for various compounds
Biological target: UniProt Q8T6T2
Sequence (Q8T6T2 whole entry): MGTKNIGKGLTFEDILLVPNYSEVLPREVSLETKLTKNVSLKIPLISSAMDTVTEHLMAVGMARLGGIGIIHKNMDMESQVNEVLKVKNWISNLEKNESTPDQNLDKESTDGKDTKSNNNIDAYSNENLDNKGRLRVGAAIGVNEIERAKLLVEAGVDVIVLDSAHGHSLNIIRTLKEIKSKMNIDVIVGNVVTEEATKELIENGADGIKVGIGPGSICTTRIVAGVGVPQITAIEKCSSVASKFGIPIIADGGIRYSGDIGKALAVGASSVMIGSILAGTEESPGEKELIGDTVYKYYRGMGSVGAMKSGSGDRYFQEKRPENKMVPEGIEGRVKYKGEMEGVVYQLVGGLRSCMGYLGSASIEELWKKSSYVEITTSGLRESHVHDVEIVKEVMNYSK
Assay: Inhibition of Cryptosporidium parvum recombinant IMPDH expressed in Escherichia coli TX685 assessed as NADH production by fluorescence assay in absence of 0.05% fatty acid free bovine serum albumin
Remember the convention: pIC50 equals -log10 of concentration in molar.

C[C@@H](Oc1cccc2c1ccc[n+]2[O-])c1cn(-c2ccc(Cl)cc2)nn1 | 7.62
CC(Oc1cccc2ccccc12)c1cn(-c2ccc(Cl)cc2)nn1 (stereo not given) | 6.89
C[C@@H](Oc1cccc2ncccc12)c1cn(-c2ccc(Cl)cc2)nn1 | 8.05
CC(Oc1ccnc2ccccc12)c1cn(-c2ccc(C#N)c(Cl)c2)nn1 (stereo not given) | 7.40
CC(Oc1ccccc1)C(=O)Nc1ccc(Cl)cc1 (stereo not given) | 5.48

Input line: Given CC(Oc1cccc2ccccc12)C(=O)Nc1ccc(Cl)cc1 (stereo not given) , state its recorded pIC50.
Output line: 5.97

Input line: Would you mind doing CC(Oc1ccnc2ccccc12)c1cn(-c2ccc(Cl)cc2)nn1 (stereo not given) as well?
Output line: 7.62

* * *

Target: Inosine-5'-monophosphate dehydrogenase (Cryptosporidium parvum)
Assay: Inhibition of Cryptosporidium parvum recombinant IMPDH expressed in Escherichia coli TX685 assessed as NADH production by fluorescence assay in presence of 0.05% fatty acid free bovine serum albumin
Below, each entry is listed with its recorded IC50.
Entry rule: numbers only, all in nM.

Below, each entry is followed by its recorded IC50 result.
CC(Oc1cc[n+]([O-])c2ccccc12)c1cn(-c2ccc(Cl)c(Cl)c2)nn1 (stereo not given) | 42
CC(Oc1cc[n+]([O-])c2ccccc12)c1cn(-c2ccc(Cl)cc2)nn1 (stereo not given) | 50
C[C@H](Oc1ccnc2ccccc12)c1cn(-c2ccc(Cl)c(Cl)c2)nn1 | 880
CC(Oc1cccc2ccccc12)C(=O)Nc1ccc(Cl)cc1 (stereo not given) | 1640
CC(C)C(Oc1cccc2ccccc12)C(=O)Nc1ccc(Cl)cc1 (stereo not given) | 830

Input line: Item C[C@@H](Oc1cc[n+]([O-])c2ccccc12)c1cn(-c2ccc(Cl)cc2)nn1 has what recorded IC50?
Output line: 50

Input line: # repeat for CC(Oc1ccnc2ccccc12)c1cn(-c2ccc(Cl)c(Cl)c2)nn1 (stereo not given)
Output line: 700

Input line: Also need CC(Oc1ccnc2ccccc12)c1cn(-c2ccc(Cl)cc2)nn1 (stereo not given) , thanks.
Output line: 230

Input line: Same lookup for C[C@@H](Oc1ccnc2ccccc12)c1cn(-c2ccc(Cl)c(Cl)c2)nn1 , please.
Output line: 650

Input line: Then CC(Oc1cccc2c1ccc[n+]2[O-])c1cn(-c2ccc(Cl)cc2)nn1 (stereo not given) ?
Output line: 59

Input line: How about CC(Oc1ccnc2ccccc12)c1cn(-c2ccc(C#N)c(Cl)c2)nn1 (stereo not given) ?
Output line: 1400

* * *

Target: Inosine-5'-monophosphate dehydrogenase (Cryptosporidium parvum)
Assay: Inhibition of Cryptosporidium parvum recombinant IMPDH expressed in Escherichia coli TX685 assessed as NADH production by fluorescence assay in absence of 0.05% fatty acid free bovine serum albumin
experimental-endpoint: pIC50
Friendly reminder that pIC50 comes from taking -log10 of the concentration in mol/L.

Example compounds with recorded pIC50:
CC(C)C(Oc1cccc2ccccc12)C(=O)Nc1ccc(Cl)cc1 (stereo not drawn) | 6.15
C[C@H](Oc1ccnc2ccccc12)c1cn(-c2ccc(Cl)c(Cl)c2)nn1 | 6.89
CC(Oc1ccnc2ccccc12)c1cn(-c2ccc(Cl)c(Cl)c2)nn1 (stereo not drawn) | 7.70
CC(Oc1ccc(Cl)c2ccccc12)c1cn(-c2ccc(Cl)cc2)nn1 (stereo not drawn) | 7.06

Input line: Recall the recorded pIC50 for CC(Oc1ccnc2ccccc12)c1cn(-c2ccc(C#N)cc2)nn1 (stereo not drawn) with Inosine-5'-monophosphate dehydrogenase (Cryptosporidium parvum) and state it.
Output line: 6.85

Input line: Input C[C@@H](Oc1ccnc2ccccc12)c1cn(-c2ccc(Cl)c(Cl)c2)nn1
Output line: 8.05

Input line: Please answer likewise for CC(Oc1cccc2c1ccc[n+]2[O-])c1cn(-c2ccc(Cl)cc2)nn1 (stereo not drawn)
Output line: 7.36

Input line: Again, but for C[C@H](Oc1ccnc2ccccc12)c1cn(-c2ccc(C#N)c(Cl)c2)nn1
Output line: 6.22

Input line: Also Clc1ccc(-n2cc(COc3ccnc4ccccc34)nn2)cc1 , if possible.
Output line: 6.36

Input line: Same lookup for C[C@@H](Oc1ccnc2ccccc12)c1cn(-c2ccc(C#N)c(Cl)c2)nn1 , please.
Output line: 7.51

Input line: Moving on to CC(Oc1cc[n+]([O-])c2ccccc12)c1cn(-c2ccc(Cl)c(Cl)c2)nn1 (stereo not drawn)
Output line: 7.74

Input line: Queued: CC(Oc1ccnc2ccccc12)C(=O)Nc1ccc(Cl)cc1 (stereo not drawn)
Output line: 6.18

Input line: Likewise for C[C@@H](Oc1cc[n+]([O-])c2ccccc12)c1cn(-c2ccc(Cl)cc2)nn1 ?
Output line: 7.89

Input line: Same question for CC(Oc1cc[n+]([O-])c2ccccc12)c1cn(-c2ccc(Cl)cc2)nn1 (stereo not drawn) please.
Output line: 7.54

* * *

Biological target: Inosine-5'-monophosphate dehydrogenase (Cryptosporidium parvum)
Experiment: Inhibition of Cryptosporidium parvum recombinant IMPDH expressed in Escherichia coli TX685 assessed as NADH production by fluorescence assay in presence of 0.05% fatty acid free bovine serum albumin
Overview of reported IC50 across a group of molecules:
Write it as a number; the unit nM goes unstated.

C[C@@H](Oc1cccc2ncccc12)c1cn(-c2ccc(Cl)cc2)nn1 | 30
CC(Oc1ccnc2ccccc12)C(=O)Nc1ccc(Cl)cc1 (centres undefined) | 860
Clc1ccc(-n2cc(COc3ccnc4ccccc34)nn2)cc1 | 480
C[C@@H](Oc1cccc2c1ccc[n+]2[O-])c1cn(-c2ccc(Cl)cc2)nn1 | 52
CC(Oc1ccnc2ccccc12)c1cn(-c2ccc(C#N)cc2)nn1 (centres undefined) | 340
C[C@H](Oc1ccnc2ccccc12)c1cn(-c2ccc(C#N)c(Cl)c2)nn1 | 2300
CC(Oc1cccc2ccccc12)c1cn(-c2ccc(Cl)cc2)nn1 (centres undefined) | 780
CC(Oc1ccc(Cl)c2ccccc12)c1cn(-c2ccc(Cl)cc2)nn1 (centres undefined) | 3900

In the following, a different molecule is considered.
Input line: Sample C[C@@H](Oc1ccnc2ccccc12)c1cn(-c2ccc(C#N)c(Cl)c2)nn1 — what was its IC50?
Output line: 1100
